Entry source: PubChem BioAssay

- TARGET_UNDER_TEST: Dihydroorotate dehydrogenase (quinone), mitochondrial (Plasmodium falciparum (isolate 3D7)) (UniProt Q08210)
- Sequence (Q08210 whole entry, looked up): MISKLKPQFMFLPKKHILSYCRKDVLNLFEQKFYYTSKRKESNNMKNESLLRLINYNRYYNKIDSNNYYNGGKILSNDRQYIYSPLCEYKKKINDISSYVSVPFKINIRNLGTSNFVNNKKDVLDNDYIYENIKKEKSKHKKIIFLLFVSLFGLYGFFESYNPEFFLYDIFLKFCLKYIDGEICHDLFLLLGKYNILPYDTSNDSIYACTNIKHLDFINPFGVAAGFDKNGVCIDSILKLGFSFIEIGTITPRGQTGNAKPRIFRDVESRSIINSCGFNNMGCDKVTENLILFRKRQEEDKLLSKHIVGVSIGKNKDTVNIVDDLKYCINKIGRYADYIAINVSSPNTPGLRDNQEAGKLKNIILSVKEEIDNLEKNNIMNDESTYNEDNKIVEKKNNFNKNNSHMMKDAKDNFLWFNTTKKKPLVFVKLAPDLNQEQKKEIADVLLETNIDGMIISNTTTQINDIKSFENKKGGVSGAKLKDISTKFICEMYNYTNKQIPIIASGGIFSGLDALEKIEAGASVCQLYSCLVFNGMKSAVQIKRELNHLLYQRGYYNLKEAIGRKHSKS
- MEASUREMENT_NOTES: PfDHODH enzyme inhibitors, primary screen, biochemical, C-terminal His tag, absorbance 600 nm (AID 1175);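 further: recombinant parasite enzyme with a five histidine tag at its C terminus; test concentration not given here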
- EXPERIMENTAL_CONDITIONS: DCIP absorbance 600 nm, higher = more signal, called active from +8 up or from −8 down
Kind request: treat -0.08 as inclusive, so composite z-score at -0.08 or higher is rule met, anything lower is rule not met.

>  <COMPOUND>
C[C@@H](c1ccccc1)N1C(=O)[C@H]2[C@H]3[C@H](O)[C@H](O)CC(=NO[C@@H]4O[C@H](CO)[C@@H](O)[C@H](O)[C@H]4O)[C@H]3CC[C@H]2C1=O

>  <LABEL>
rule not met

$$$$
>  <COMPOUND>
C=CC1=C[C@H](O)[C@@H]2O[C@@H]2C12OCCCO2

>  <LABEL>
rule met

$$$$
>  <COMPOUND>
CCCCC#C[C@@H]1C=C[C@H](OC(C)=O)[C@@H](COC(C)=O)O1

>  <LABEL>
rule not met

$$$$
>  <COMPOUND>
COC(=O)CC=C[C@@H](C)[C@@H](C=NOC[C@H]1O[C@H](c2ccccc2)C=C[C@@H]1Oc1ccc(OC)cc1)OC

>  <LABEL>
rule met

$$$$
>  <COMPOUND>
O=c1n(-c2ccccc2)c(=O)n2n1CC[C@@H]1C(=NOCc3ccccc3)[C@H]3O[C@H]3[C@@H](O)[C@@H]12

>  <LABEL>
rule not met

$$$$
>  <COMPOUND>
CC(CCN1CCCc2nc(C)c(C)cc21)=NO[C@@H](C)c1cc(-c2c(C)cc(C)cc2C)no1

>  <LABEL>
rule not met

$$$$
>  <COMPOUND>
CCOC(=O)[C@H](CC(C)C)NC(=O)CCC1CC(OC(=O)NCc2cccc3ccccc23)CC2(CCCC(COC(=O)NCc3ccncc3)O2)O1 (stereo not given in full)

>  <LABEL>
rule met

$$$$
>  <COMPOUND>
COC(=O)[C@@H]1CC[C@H](C)[C@@H](c2ccc(C)cc2)N1C(=O)c1ccc(C=NO[C@@H](C)c2cn([C@H](CO)Cc3ccccc3)nn2)cc1

>  <LABEL>
rule not met

$$$$
>  <COMPOUND>
COc1ccc(COC(=O)NN=C2C[C@@H](O)[C@@H](O)[C@@H]3[C@@H]4C(=O)N(C5CCCCC5)C(=O)[C@@H]4CC[C@H]23)cc1

>  <LABEL>
rule met

$$$$
